# System: convulsions induced by pentetrazole
# method: animal or person
# test-settings: Mus musculus, po, 0.5 h, read-out: ED50 in respect of convulsions induced by PTZ, per os, male mice, 30 min after administration, pentetrazole 125 mg/kg i.p.; dose protecting 50% of animals
Below is a list of entries, each paired with its recorded ED50 value.
Give the value, in units of mg/kg, as a plain number.

Field: example entries. Status: answers known.
>  <molecule>
O=C(c1cccnc1)N1CCN(c2ccccc2)CC1 [Ex. 27]

>  <target-under-test>
convulsions induced by pentetrazole

>  <recorded-value>
156

$$$$
>  <molecule>
Cc1cccc(N2CCN(C(=O)c3cccnc3)CC2)c1C [Ex. 3]

>  <target-under-test>
convulsions induced by pentetrazole

>  <recorded-value>
110

$$$$
>  <molecule>
CCOc1cccc(N2CCN(C(=O)c3cccnc3)CC2)c1 [Ex. 18]

>  <target-under-test>
convulsions induced by pentetrazole

>  <recorded-value>
72

$$$$
>  <molecule>
O=C(c1cccnc1)N1CCN(c2cccc(Cl)c2)CC1 [Ex. 2]

>  <target-under-test>
convulsions induced by pentetrazole

>  <recorded-value>
50

$$$$
>  <molecule>
O=C(c1cccnc1)N1CCN(c2ccc(F)cc2)CC1 [Ex. 10]

>  <target-under-test>
convulsions induced by pentetrazole

>  <recorded-value>
62

$$$$

Noted for Cl.Cl.O=C(c1cccnc1)N1CCN(c2cccc(C(F)(F)F)c2)CC1 [Ex. 1] : its ED50 reads 17

Memo: Cc1ccccc1N1CCN(C(=O)c2cccnc2)CC1 [Ex. 13] , reported ED50: 161

Record summary for COc1ccc(N2CCN(C(=O)c3cccnc3)CC2)cc1 [Ex. 16] : reported ED50 = 120

The reported value for CN1C(=O)OC(C)(C)C1=O [TRIM, trimethadione, reference compound] in terms of ED50 is 251

Please fill in: ED50 reported for COc1cccc(N2CCN(C(=O)c3cccnc3)CC2)c1 [Ex. 15] = 183

# molecule Cc1cccc(C)c1N1CCN(C(=O)c2cccnc2)CC1 [Ex. 30] ; its ED50 = 138

What the record says about O=C(c1cccnc1)N1CCN(c2cccc(C(F)(F)F)c2)CC1 [Ex. 6] : ED50 is 13

ED50 recorded for this molecule, O=C(c1cccnc1)N1CCN(c2ccccc2F)CC1 [Ex. 8] , is 180

Looking up Cc1ccc(Cl)cc1N1CCN(C(=O)c2cccnc2)CC1 [Ex. 24] , I see its ED50 listed as 63

Note to self: ED50 recorded for O=C(c1cccnc1)N1CCN(c2ccccc2Cl)CC1 [Ex. 4] was 160
